B1: Caulobacter ParB omega fusion; a variant is named by its letters at X, in order, B8GW30 (parent)
chain: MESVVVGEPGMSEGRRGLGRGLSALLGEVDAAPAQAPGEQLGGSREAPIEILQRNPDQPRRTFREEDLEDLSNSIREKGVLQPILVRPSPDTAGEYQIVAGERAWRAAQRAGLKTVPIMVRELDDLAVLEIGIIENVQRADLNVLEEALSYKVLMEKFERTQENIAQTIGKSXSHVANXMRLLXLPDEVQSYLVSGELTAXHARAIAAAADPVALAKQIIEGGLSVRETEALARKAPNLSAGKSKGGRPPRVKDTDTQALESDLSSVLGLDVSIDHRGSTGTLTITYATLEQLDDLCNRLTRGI

# Variants of: B1
# protocolDescription: one-hybrid fitness for binding NBS DNA (the Noc-binding site; scaled: cognate 1, non-cognate 0); higher = stronger binding
# conditionNotes: with NBS DNA site
The full ranking holds about 81,000 sequences; the median of “one-hybrid fitness for binding NBS DNA” is about -0.1, and the highest 2% start at about 0.36. Shown is part of a subset that was picked to be rich in the highest values.
parameter: one-hybrid fitness for binding NBS DNA

Ask: // fetch one-hybrid fitness for binding NBS DNA given entry QRHY
Reply: 0.553

Ask: Name the recorded one-hybrid fitness for binding NBS DNA of the item RKMN in your answer.
Reply: ≤ 0.2
